Each recorded value in this set is attributed to paper PMC12527034.

# target-or-test-system: ATeam1.03YEMK R103E/R115A
# Construct: YEMK epsilon subunit flanked by mseCFP and mVenus; polyhistidine-tagged
# assay-procedure: Steady-state FRET ratio ATP dose response of 0.125 uM purified ATeam1.03 or ATeam1.03YEMK sensor at room temperature in 50 mM MOPS-KOH pH 7.3, 50 mM KCl, 0.5 mM free Mg2+, 0.05% Triton-X100 (4 to 9 replicates).
# conditions-used: SD, n = 4; read-out: ATP Affinity Kapp (ATeam1.03 and ATeam1.03YEMK)
measured-attribute: pKd
Just the number, please; pKd means minus log10 of the concentration in mol/L.

[Q] Looking for the measured pKd of Nc1ncnc2c1ncn2[C@@H]1O[C@H](COP(=O)(O)OP(=O)(O)OP(=O)(O)O)[C@@H](O)[C@H]1O [ATP, Adenosine triphosphate] , can you help?
[A] 2.72

----------
# target-or-test-system: ATeam3.10 R115A (Bacillus sp. PS3, UniProt A0A0M5MQR7, R115A)
# Construct: gene uncC; epsilon subunit flanked by mseCFP and mVenus; polyhistidine-tagged
# Sequence (A0A0M5MQR7 entry or part of it R115A): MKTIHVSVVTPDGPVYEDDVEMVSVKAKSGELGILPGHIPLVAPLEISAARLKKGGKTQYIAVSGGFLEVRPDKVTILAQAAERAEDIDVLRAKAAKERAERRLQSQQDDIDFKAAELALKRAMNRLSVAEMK
# assay-procedure: Steady-state FRET ratio ATP dose response of 0.125 uM purified ATeam3.10 sensor at room temperature in 50 mM MOPS-KOH pH 7.3, 50 mM KCl, 0.5 mM free Mg2+, 0.05% Triton-X100 (4 to 9 replicates).
# Assay type: binding
# conditions-used: SD, n = 4; read-out: ATP Affinity Kapp
measured-attribute: pKd
Just the number, please; pKd means minus log10 of the concentration in mol/L.

[Q] Looking for the measured pKd of Nc1ncnc2c1ncn2[C@@H]1O[C@H](COP(=O)(O)OP(=O)(O)OP(=O)(O)O)[C@@H](O)[C@H]1O [ATP, Adenosine triphosphate] , can you help?
[A] 6.22

----------
# target-or-test-system: ATeam3.10 R103A/R115E (Bacillus sp. PS3, UniProt A0A0M5MQR7, R103A/R115E)
# Construct: gene uncC; epsilon subunit flanked by mseCFP and mVenus; polyhistidine-tagged
# Sequence (A0A0M5MQR7 entry or part of it R103A/R115E): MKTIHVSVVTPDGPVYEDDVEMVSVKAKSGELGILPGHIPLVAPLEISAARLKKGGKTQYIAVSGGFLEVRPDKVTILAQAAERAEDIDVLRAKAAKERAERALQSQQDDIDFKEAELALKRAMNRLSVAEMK
# assay-procedure: Steady-state FRET ratio ADP dose response of 0.125 uM purified ATeam3.10 sensor at room temperature in 50 mM MOPS-KOH pH 7.3, 50 mM KCl, 0.5 mM MgCl2, 0.05% Triton-X100 (4 to 9 replicates).
# Format: binding
# conditions-used: n = 4
measured-attribute: pKd
Just the number, please; pKd means minus log10 of the concentration in mol/L.

[Q] Looking for the measured pKd of Nc1ncnc2c1ncn2[C@@H]1O[C@H](COP(=O)(O)OP(=O)(O)O)[C@@H](O)[C@H]1O [ADP, Adenosine diphosphate] , can you help?
[A] 4.77

----------
# target-or-test-system: ATeam3.10 R103A/R115A (Bacillus sp. PS3, UniProt A0A0M5MQR7, R103A/R115A)
# Construct: gene uncC; epsilon subunit flanked by mseCFP and mVenus; polyhistidine-tagged
# Sequence (A0A0M5MQR7 entry or part of it R103A/R115A): as the sequence (A0A0M5MQR7 entry or part of it R103A/R115E) above, with E115A counted along it
# assay-procedure: Steady-state FRET ratio ATP dose response of 0.125 uM purified ATeam3.10 sensor at room temperature in 50 mM MOPS-KOH pH 7.3, 50 mM KCl, 0.5 mM free Mg2+, 0.05% Triton-X100 (4 to 9 replicates).
# Type: binding
# conditions-used: SD, n = 4; read-out: ATP Affinity Kapp
measured-attribute: Kd (nM)
Hi! Could you send only the number? It should be in nM, unit omitted.

[Q] Looking for the measured Kd of Nc1ncnc2c1ncn2[C@@H]1O[C@H](COP(=O)(O)OP(=O)(O)OP(=O)(O)O)[C@@H](O)[C@H]1O [ATP, Adenosine triphosphate] , can you help?
[A] 200
